// data source = ChEMBL document CHEMBL1141186

Target protein (sequence): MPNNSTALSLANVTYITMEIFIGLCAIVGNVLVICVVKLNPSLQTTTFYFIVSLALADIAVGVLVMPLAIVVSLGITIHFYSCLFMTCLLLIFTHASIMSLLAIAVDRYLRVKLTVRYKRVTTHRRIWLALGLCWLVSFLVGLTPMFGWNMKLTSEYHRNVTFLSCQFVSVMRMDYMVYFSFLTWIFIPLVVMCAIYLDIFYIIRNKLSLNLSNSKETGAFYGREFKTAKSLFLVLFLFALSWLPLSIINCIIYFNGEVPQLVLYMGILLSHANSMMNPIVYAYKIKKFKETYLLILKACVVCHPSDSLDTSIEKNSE
Endpoint: Ki (µM)

Some compounds with known Ki results, for comparison:
>>> print(df.to_string())
                           chemical_string  result_number
0  Clc1cc(Cl)c2[nH]c(-c3cnc4ccccc4n3)nc2c1          0.699
1       c1ccc2nc(-c3nc4cc[nH]cc-4n3)cnc2c1          0.168

(1) Clc1cccc2nc(-c3cnc4ccccc4n3)[nH]c12
(2) Clc1ccc2[nH]c(-c3cnc4ccccc4n3)nc2c1
(3) Cc1cc(Cl)cc2[nH]c(-c3cnc4ccccc4n3)nc12
-- ask # rank_down: sort by Ki, max first Response format: the labels, sorted as the prompt asks.
-- reply 2, 3, 1
(2: 0.632 µM, 3: 0.238 µM, 1: 0.14 µM)
